Field: pIC50. Provide a value for each of the molecules that follow.
system-tested: Dipeptidyl peptidase 4 (Homo sapiens, UniProt P27487)
Sequence (P27487 whole entry): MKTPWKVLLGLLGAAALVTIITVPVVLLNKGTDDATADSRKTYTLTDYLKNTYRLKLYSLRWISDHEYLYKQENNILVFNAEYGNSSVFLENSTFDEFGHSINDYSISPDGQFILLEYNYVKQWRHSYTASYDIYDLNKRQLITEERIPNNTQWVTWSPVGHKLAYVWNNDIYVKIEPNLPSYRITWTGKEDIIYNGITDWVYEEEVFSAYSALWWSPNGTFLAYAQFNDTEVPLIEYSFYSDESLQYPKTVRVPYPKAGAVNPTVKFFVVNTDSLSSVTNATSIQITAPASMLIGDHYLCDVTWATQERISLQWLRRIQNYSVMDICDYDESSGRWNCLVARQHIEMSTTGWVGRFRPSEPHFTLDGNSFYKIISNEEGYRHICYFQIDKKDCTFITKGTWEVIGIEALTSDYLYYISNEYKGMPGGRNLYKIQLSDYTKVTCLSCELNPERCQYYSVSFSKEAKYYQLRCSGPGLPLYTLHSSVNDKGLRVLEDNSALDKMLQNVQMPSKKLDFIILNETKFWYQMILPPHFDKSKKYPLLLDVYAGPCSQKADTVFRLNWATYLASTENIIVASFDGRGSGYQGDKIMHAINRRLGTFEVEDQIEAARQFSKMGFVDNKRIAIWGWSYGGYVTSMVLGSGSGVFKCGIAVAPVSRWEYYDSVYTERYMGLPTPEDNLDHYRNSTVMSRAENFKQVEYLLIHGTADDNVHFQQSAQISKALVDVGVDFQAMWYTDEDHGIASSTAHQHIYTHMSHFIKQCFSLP
pIC50 is defined as minus the log10 of a concentration measured in mol/L.

Param item = CN(C)C(=O)CC1c2nnc(C(F)(F)F)n2CCN1C(=O)C[C@H](N)Cc1cc(F)c(F)cc1F (stereo in doubt; 41a) ; retrieve measured pIC50.
6.42

And then C[C@@H]1CN(C(=O)C[C@H](N)Cc2cc(F)c(F)cc2F)Cc2ccc(C(F)(F)F)n21.Cl , what is it?
7.85

And then N[C@@H](CC(=O)N1CCn2c(nnc2C(F)(F)F)C1C(O)c1ccc(F)cc1)Cc1cc(F)c(F)cc1F (stereo in doubt; 47d) , what is it?
9.30

And then C[C@H]1CN(C(=O)C[C@H](N)Cc2cc(F)c(F)cc2F)Cc2ccc(C(F)(F)F)n21 , what is it?
7.64

And then N[C@@H](CC(=O)N1CCn2c(nnc2C(F)(F)F)C1Cc1ccccc1)Cc1cc(F)c(F)cc1F (stereo in doubt; 42b) , what is it?
9.18

And then C[C@H]1Cn2c(nnc2C(F)(F)F)CN1C(=O)C[C@H](N)Cc1cc(F)c(F)cc1F , what is it?
7.04

And then C=CCC1c2nnc(C(F)(F)F)n2CCN1C(=O)C[C@H](N)Cc1cc(F)c(F)cc1F (stereo in doubt; 40a) , what is it?
8.82

And then C[C@@H]1Cn2c(nnc2C(F)(F)F)CN1C(=O)C[C@H](N)Cc1cc(F)c(F)cc1F , what is it?
7.38

====

Field: half-life. Provide a value for each of the compounds that follow.
experiment-notes: Half life in rat at 1 mg/kg, iv and 2 mg/kg, po
Format: ADME, organism-based
protocol-conditions: in vivo
# value in h; strip the unit string

Param item = Cl.N[C@@H](CC(=O)N1CCn2c(nnc2C(F)(F)F)[C@H]1Cc1ccc(F)cc1)Cc1cc(F)c(F)cc1F (mixture of isomers) ; retrieve measured half-life.
1.5

And then Cl.N[C@@H](CC(=O)N1CCn2c(nnc2C(F)(F)F)C1C(O)c1ccc(F)cc1)Cc1cc(F)c(F)cc1F (stereo in doubt; 47b) , what is it?
2.6

And then CN(C)C(=O)CC1c2nnc(C(F)(F)F)n2CCN1C(=O)C[C@H](N)Cc1cc(F)c(F)cc1F.Cl (stereo in doubt; 41b) , what is it?
2.7

====

Field: pIC50. Provide a value for each of the molecules that follow.
system-tested: Dipeptidyl peptidase 9 (Homo sapiens)
Sequence (Q86TI2 whole entry): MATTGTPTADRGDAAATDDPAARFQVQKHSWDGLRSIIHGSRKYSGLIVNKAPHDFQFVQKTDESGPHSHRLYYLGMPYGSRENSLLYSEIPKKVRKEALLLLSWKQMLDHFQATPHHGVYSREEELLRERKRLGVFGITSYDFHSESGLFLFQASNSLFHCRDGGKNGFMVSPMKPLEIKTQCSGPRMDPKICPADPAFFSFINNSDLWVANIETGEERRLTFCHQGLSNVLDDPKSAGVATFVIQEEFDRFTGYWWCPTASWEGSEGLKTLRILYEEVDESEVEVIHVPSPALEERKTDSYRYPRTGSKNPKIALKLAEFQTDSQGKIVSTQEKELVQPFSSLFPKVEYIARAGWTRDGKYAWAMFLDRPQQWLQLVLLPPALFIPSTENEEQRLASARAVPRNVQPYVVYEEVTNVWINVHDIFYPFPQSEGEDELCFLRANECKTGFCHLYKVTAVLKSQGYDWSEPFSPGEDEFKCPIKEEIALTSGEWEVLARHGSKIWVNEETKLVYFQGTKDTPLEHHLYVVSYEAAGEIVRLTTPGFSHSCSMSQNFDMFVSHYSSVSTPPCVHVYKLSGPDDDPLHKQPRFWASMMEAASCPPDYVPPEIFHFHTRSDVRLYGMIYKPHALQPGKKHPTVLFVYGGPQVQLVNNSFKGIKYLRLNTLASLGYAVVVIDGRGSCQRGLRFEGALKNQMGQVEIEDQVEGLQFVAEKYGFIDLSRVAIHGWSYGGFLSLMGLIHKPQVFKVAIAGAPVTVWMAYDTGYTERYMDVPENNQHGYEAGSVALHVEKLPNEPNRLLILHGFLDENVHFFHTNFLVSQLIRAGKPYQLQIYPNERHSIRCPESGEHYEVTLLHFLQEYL
pIC50 is defined as minus the log10 of a concentration measured in mol/L.

Report pIC50 for C[C@H]1CN(C(=O)C[C@H](N)Cc2cc(F)c(F)cc2F)Cc2ccc(C(F)(F)F)n21 tested on Dipeptidyl peptidase 9 (Homo sapiens).
4.64

And then C[C@@H]1c2nnc(C(F)(F)F)n2[C@H](C)CN1C(=O)C[C@H](N)Cc1cc(F)c(F)cc1F.Cl , what is it?
4.28

====

experiment-notes: Oral bioavailability in rat at 2 mg/kg
Assay type: ADME, organism-based
protocol-conditions: in vivo
Please enter true where bioavailability is greater than or equal to 40%, and false where it is lower.

Is the recorded value of bioavailability equal to or greater than 40% for this molecule? CN(C)C(=O)CC1c2nnc(C(F)(F)F)n2CCN1C(=O)C[C@H](N)Cc1cc(F)c(F)cc1F.Cl (stereo in doubt; 41b)
false

And then C[C@@H]1c2nnc(C(F)(F)F)n2CCN1C(=O)C[C@H](N)Cc1cc(F)c(F)cc1F.Cl , what is it?
true

And then Cl.N[C@@H](CC(=O)N1CCn2c(nnc2C(F)(F)F)C1Cc1ccccn1)Cc1cc(F)c(F)cc1F (stereo in doubt; 49b) , what is it?
false

And then C[C@@H]1c2nnc(C(F)(F)F)n2[C@H](C)CN1C(=O)C[C@H](N)Cc1cc(F)c(F)cc1F.Cl , what is it?
true

And then Cl.N[C@@H](CC(=O)N1CCn2c(nnc2C(F)(F)F)C1Cc1ccccc1F)Cc1cc(F)c(F)cc1F (stereo in doubt; 45b) , what is it?
false

And then Cl.N[C@@H](CC(=O)N1CCn2c(nnc2C(F)(F)F)[C@H]1Cc1ccc(F)cc1)Cc1cc(F)c(F)cc1F (mixture of isomers) , what is it?
true

And then C[C@@H]1CN(C(=O)C[C@H](N)Cc2cc(F)c(F)cc2F)Cc2ccc(C(F)(F)F)n21.Cl , what is it?
false

And then Cl.N[C@@H](CC(=O)N1CCn2c(nnc2C(F)(F)F)C1Cc1cc(C(F)(F)F)cc(C(F)(F)F)c1)Cc1cc(F)c(F)cc1F (stereo in doubt; 48b) , what is it?
false

And then Cl.N[C@@H](CC(=O)N1CCn2c(nnc2C(F)(F)F)C1C(O)c1ccc(F)cc1)Cc1cc(F)c(F)cc1F (stereo in doubt; 47b) , what is it?
false
